Provenance of the data: patent US11524968B2

- system: JAK1 (Homo sapiens (Human), UniProt P23458)
- Sequence (P23458 whole entry): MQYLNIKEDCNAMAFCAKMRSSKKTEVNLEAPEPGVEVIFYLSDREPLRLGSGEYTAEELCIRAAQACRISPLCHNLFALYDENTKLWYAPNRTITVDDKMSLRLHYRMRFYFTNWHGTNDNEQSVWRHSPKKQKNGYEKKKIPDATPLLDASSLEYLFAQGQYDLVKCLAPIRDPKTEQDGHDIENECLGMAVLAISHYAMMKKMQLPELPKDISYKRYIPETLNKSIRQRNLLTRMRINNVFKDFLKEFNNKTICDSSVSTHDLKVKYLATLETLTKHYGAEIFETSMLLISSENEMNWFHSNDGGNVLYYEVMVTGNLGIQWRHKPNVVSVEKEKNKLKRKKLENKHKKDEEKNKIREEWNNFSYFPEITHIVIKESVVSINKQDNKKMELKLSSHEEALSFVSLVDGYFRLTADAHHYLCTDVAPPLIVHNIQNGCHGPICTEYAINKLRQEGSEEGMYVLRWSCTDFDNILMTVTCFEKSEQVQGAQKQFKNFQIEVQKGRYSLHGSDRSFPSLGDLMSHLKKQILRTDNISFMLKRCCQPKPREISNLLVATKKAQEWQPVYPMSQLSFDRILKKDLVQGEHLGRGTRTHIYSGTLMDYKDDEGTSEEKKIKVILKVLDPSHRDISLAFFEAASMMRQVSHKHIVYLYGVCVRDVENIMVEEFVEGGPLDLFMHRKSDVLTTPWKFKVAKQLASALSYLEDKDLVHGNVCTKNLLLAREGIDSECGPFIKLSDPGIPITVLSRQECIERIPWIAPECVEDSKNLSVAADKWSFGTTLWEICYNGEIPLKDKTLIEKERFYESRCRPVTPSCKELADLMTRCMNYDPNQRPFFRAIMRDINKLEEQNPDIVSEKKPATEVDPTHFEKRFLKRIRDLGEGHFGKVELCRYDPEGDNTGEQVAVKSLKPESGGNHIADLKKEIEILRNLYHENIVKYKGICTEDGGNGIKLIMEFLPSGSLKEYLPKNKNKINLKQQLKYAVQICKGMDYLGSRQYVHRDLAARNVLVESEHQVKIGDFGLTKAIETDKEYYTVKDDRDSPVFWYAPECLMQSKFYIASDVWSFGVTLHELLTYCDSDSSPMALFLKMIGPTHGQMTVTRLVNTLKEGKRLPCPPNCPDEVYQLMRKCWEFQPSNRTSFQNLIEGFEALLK
- protocol_text: Analysis of JAK1 activity inhibition ability (ADP-Glo Kinase Assay)
- Type: biochemical
- details: JAK1 enzyme, ADP-Glo luminescence, ATP 250 uM, IRS-itide substrate, 30° C. 40 minutes; read-out: IC50
recorded_metric: IC50

Entry under test: O=C(CCC(F)(F)F)NC1CC=C(c2cc(NC(=O)C3CC3)nc3[nH]ccc23)CC1 (stereo not drawn) [Example 248] . Its IC50 was > 200 nM

Entry under test: CCCCC(=O)N1C2CCC1CC(c1cc(NC(=O)C3CC3)nc3[nH]ccc13)C2 (stereo not drawn) [Example 651] . Its IC50 was > 200 nM

Entry under test: O=C(Nc1cc(-c2ccc(NC3CCN(C(=O)NCC(F)(F)F)CC3)c(F)c2)c2cc[nH]c2n1)C1CC1 [Example 505] . Its IC50 was 20 to 200 nM
